Source of measurements: PubChem BioAssay AID493248

target: FAD-linked sulfhydryl oxidase ALR (Homo sapiens) (UniProt P55789); assay: inhibitors of human ALR sulfhydryl oxidase, dose response, biochemical, H2O2 detection, luminescence, cherry-pick (AID 493248); conditions: purified ALR, DTT oxidation, H2O2 HRP-luminol luminescence; at 10 µM (top of the series)
Sequence (P55789 whole entry, looked up): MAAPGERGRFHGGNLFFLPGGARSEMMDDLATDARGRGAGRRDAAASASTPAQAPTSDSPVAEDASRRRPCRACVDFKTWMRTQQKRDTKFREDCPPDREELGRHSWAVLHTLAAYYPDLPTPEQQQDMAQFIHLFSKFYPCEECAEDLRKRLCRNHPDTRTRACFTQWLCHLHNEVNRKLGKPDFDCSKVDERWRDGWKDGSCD
Hit rate of the full screen: of about 2,300 compounds, about 1,400 (61%) were called active. Inconclusive results (about 7%) are left out. The set was probably picked from earlier hits. A selection follows. Results with a measured potency or affinity are listed apart.
Listed below: activity change, negative = inhibition values for each entry.
Put your answer as a value accompanied by its unit after it.

COc1ccc([N+](=O)[O-])cc1NC1CCCCC1    -14.6%
Cc1ccc(N=c2oc3cc(O)ccc3cc2C(N)=O)cc1    -84.9%
CCN1C(=O)c2ccc(C(=O)Nc3ccc(O)cc3C)cc2C1=O    -50.1%
COc1cc(/C=N/N2C(=O)C3C4C=CC(CC4)C3C2=O)ccc1O (stereo unspecified)    -104%
COc1ccc(NC2CCCN(C(=O)c3oc(C)cc3C)C2)cc1OC (stereo unspecified)    75.6%
S=c1[nH]nc(Cc2ccccc2)n1-c1ccccc1    -7.81%
COc1ccc(OC)c(S(=O)(=O)Nc2cccc3c(O)cccc23)c1    31.7%
CC(=O)c1cc(CC=C(C)C)c(O)cc1O    11.5%

Record for O=C(C1CCCC1)N1CCCC(Nc2ccc(F)cc2)C1 (stereo unspecified) under target or system FAD-linked sulfhydryl oxidase ALR (Homo sapiens) (UniProt P55789): activity change, negative = inhibition reported as -72.7%

# "CN(C)c1ccc(N2CC(C)(C)C2=O)cc1" with FAD-linked sulfhydryl oxidase ALR (Homo sapiens) (UniProt P55789): activity change, negative = inhibition is 9.24%

Measured activity change, negative = inhibition for this entry "Cc1nc(N2CCN(c3ccccc3)CC2)[nH]c(=O)c1C" on FAD-linked sulfhydryl oxidase ALR (Homo sapiens) (UniProt P55789): -42.3%
